From: paper PMC7893776

# Assay summary: Rat pharmacokinetics, single PO or IV dose
# Type: in vivo, male Sprague Dawley rats
# Setup conditions: in vivo, po, 50 mg/kg
I'd be grateful if you could share measured Cmax for these entries.
Expressed in µM, but write only the number.

Report Cmax for N#Cc1cc(NC(=O)[C@H]2c3ccccc3C(=O)N(CC(F)(F)F)[C@@H]2c2cccnc2)ccc1F [(+)-SJ733] 11.1

Report Cmax for N#Cc1cc(NC(=O)[C@H]2c3ccccc3C(=O)N(CC(F)(F)F)[C@@H]2c2cn[nH]c2)ccc1F [(+)-SJ311] 4.4

----------
# Assay summary: Microsomal stability, human
# Type: in vitro ADME
# Setup conditions: human microsomes, 0.8 µM
# Procedure: The metabolic stability assay was performed by incubating compounds individually (0.8, 4, or 20 µM) with mouse, rat, dog and human liver microsomes (Fisher, 0.5 mg/mL protein concentration) at 37 °C. […] The remaining concentration of each compound was measured as a ratio of peak area to the internal standard. The log peak area ratio was plotted vs. time (h), and the slope was determined to calculate the elimination rate constant [k = (− 2.303) * slope]. […]
I'd be grateful if you could share measured t1/2 for these entries.
Expressed in h, but write only the number.

Report t1/2 for N#Cc1cc(NC(=O)[C@H]2c3ccccc3C(=O)N(CC(F)(F)F)[C@@H]2c2cccnc2)ccc1F [(+)-SJ733] 0.5

Report t1/2 for N#Cc1cc(NC(=O)[C@@H]2c3ccccc3C(=O)N(CC(F)(F)F)[C@H]2c2cccnc2)ccc1F [(-)-SJ733] 0.4

----------
# Assay summary: Mouse plasma pharmacokinetics, single PO or IV dose
# Format: in vivo, female C57BL/6 mice
# Setup conditions: female, C57BL/6, mouse, plasma, po, mouse, summary over the oral doses studied; read-out: Mouse F (oral bioavailability)
I'd be grateful if you could share measured bioavailability for these entries.

Report bioavailability for N#Cc1cc(NC(=O)[C@H]2c3ccccc3C(=O)N(CC(F)(F)F)[C@@H]2c2cccnc2)ccc1F (racemic) 65 to 81%

Report bioavailability for N#Cc1cc(NC(=O)[C@H]2c3ccccc3C(=O)N(CC(F)(F)F)[C@@H]2c2cn[nH]c2)ccc1F 22 to 23%

----------
# Assay summary: Thermodynamic solubility
# Type: physicochemical
# Setup conditions: 37 °C, aqueous buffer, thermodynamic from solid; pH 7.4, 6.5, and 5.8 aqueous buffers
Measurement name: solubility thermodynamic

Report solubility thermodynamic for N#Cc1cc(NC(=O)[C@H]2c3ccccc3C(=O)N(CC(F)(F)F)[C@@H]2c2cccnc2)ccc1F (racemic) [SJ733] 81 to 237 µM

----------
I'd be grateful if you could share measured Half-life for these entries.
# Assay summary: Rat pharmacokinetics, single PO or IV dose
# Type: in vivo, male Sprague Dawley rats
# Setup conditions: male, Sprague Dawley, plasma, PO, read-out: terminal half-life, mean t1/2

Report Half-life for N#Cc1cc(NC(=O)[C@H]2c3ccccc3C(=O)N(CC(F)(F)F)[C@@H]2c2cn[nH]c2)ccc1F 3.5 to 7.9 h

Report Half-life for N#Cc1cc(NC(=O)[C@H]2c3ccccc3C(=O)N(CC(F)(F)F)[C@@H]2c2cccnc2)ccc1F (racemic) 7.7 to 10.3 h

----------
I'd be grateful if you could share measured Cmax for these entries.
# Assay summary: Mouse plasma pharmacokinetics, single PO or IV dose
# Assay type: in vivo, female C57BL/6 mice
# Setup conditions: mouse plasma, single IV 15 mg/kg
Expressed in µM, but write only the number.

Report Cmax for N#Cc1cc(NC(=O)C2c3ccccc3C(=O)N(CC(F)(F)F)C2c2cn[nH]c2)ccc1F (racemic) [(r)-SJ311] 13.4

Report Cmax for N#Cc1cc(NC(=O)C2c3ccccc3C(=O)N(CC(F)(F)F)C2c2cccnc2)ccc1F (racemic) [(r)-SJ733] 11.3
